// provenance: ChEMBL document CHEMBL3352756

assay: Cytotoxicity against mouse RAW264.7 cells assessed as cell viability at 20 uM after 24 hrs by MTT assay in presence of LPS; type: cell-based; conditions: RAW264.7 cells, read-out: Activity
Readings of viability at 24 h, 20 µM for the listed compounds
Entry rule: numbers only, all in %.

| compound | viability at 24 h, 20 µM, % |
| --- | --- |
| NS(=O)(=O)c1ccc2nc(N3N=C(c4ccc(Cl)cc4)CC3c3ccc(F)cc3)sc2c1 (configuration not stated) | 86 |
| NS(=O)(=O)c1ccc2nc(N3N=C(c4ccc(Br)cc4)CC3c3ccc(F)cc3)sc2c1 (configuration not stated) | 86 |
| COc1ccc(C2CC(c3ccc(Br)cc3)=NN2c2nc3ccc(S(N)(=O)=O)cc3s2)cc1 (configuration not stated) | 86 |

Turning now to a further compound:
Enquiry: Given the entry NS(=O)(=O)c1ccc2nc(N3N=C(c4ccc(Br)cc4)CC3c3ccc(Cl)cc3)sc2c1 (configuration not stated) , report its measured viability at 24 h, 20 µM.
Return: 90
